system: forty-four human cancer cell lines; assay: Cell proliferation assay (ATPlite, 72 hours) in the 44 cell line Oncolines panel; type: cell-based; conditions: Homo sapiens, CCRF-CEM, cell line CCRF-CEM; read-out: cell panel IC50, CCRF-CEM
pIC50: −log10 of the molar value.
measuredAttribute: pIC50

molecule="O=c1[nH]cc(F)c(=O)[nH]1 [5-fluorouracil]" measuredattribute=pIC50 resultvalue=4.82

###

target: panel of more than 300 wild-type and mutant kinases (313 kinase panel) (Homo sapiens, UniProt O00141); assay: Kinase profiling in a biochemical assay panel (mobility shift assays and ELISA), %-inhibition at 1 μM; selectivity entropy; settings: kinase SGK; 1 μM
Sequence (O00141 whole entry, change not shown): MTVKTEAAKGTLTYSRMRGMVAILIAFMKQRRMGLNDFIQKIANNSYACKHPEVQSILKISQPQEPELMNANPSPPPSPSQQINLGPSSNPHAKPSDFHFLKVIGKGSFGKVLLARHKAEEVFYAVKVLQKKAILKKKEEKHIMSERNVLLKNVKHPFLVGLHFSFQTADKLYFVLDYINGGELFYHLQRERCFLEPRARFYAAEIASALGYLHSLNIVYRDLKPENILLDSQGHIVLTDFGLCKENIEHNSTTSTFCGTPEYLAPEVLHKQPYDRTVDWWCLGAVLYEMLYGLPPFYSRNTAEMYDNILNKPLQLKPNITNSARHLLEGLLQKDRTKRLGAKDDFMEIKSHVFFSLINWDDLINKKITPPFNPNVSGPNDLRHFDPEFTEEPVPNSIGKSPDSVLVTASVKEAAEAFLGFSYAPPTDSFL
Recorded %-inhibition of SGK by entry
measuredAttribute: %-inhibition of SGK (%)

compound=Cc1cn(-c2cc(NC(=O)c3ccc(C)c(Nc4nccc(-c5cccnc5)n4)c3)cc(C(F)(F)F)c2)cn1 unitlabel=% resultvalue=9
compound=CO[C@H]1C[C@@H]2CC[C@@H](C)[C@@](O)(O2)C(=O)C(=O)N2CCCC[C@H]2C(=O)O[C@H]([C@H](C)C[C@@H]2CC[C@@H](OC(=O)C(C)(CO)CO)[C@H](OC)C2)CC(=O)[C@H](C)/C=C(\C)[C@@H](O)[C@@H](OC)C(=O)[C@H](C)C[C@H](C)/C=C/C=C/C=C/1C unitlabel=% resultvalue=-3.17
compound=COc1cc2c(Nc3ccc(Br)cc3F)ncnc2cc1OCC1CCN(C)CC1 unitlabel=% resultvalue=-4.51
compound=CCCS(=O)(=O)Nc1ccc(F)c(C(=O)c2c[nH]c3ncc(-c4ccc(Cl)cc4)cc23)c1F unitlabel=% resultvalue=-0.122
compound=Cc1ccc(Nc2nccc(N(C)c3ccc4c(C)n(C)nc4c3)n2)cc1S(N)(=O)=O unitlabel=% resultvalue=-1.12
compound="COc1cc2nccc(Oc3ccc(NC(=O)C4(C(=O)Nc5ccc(F)cc5)CC4)cc3)c2cc1OC [cabozantinib]" unitlabel=% resultvalue=-2
